TEST_DESCRIPTION: NCI Yeast Anticancer Drug Screen. Data for the wt1 strain (AID 149);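 note: 0% = growth of vehicle-treated wt1 cultures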
CONDITION_SET: S. cerevisiae wt1 strain (SPY 50644) growth inhibition; at 3.7 µM; active compounds read high
Compounds without any hit were thinned out: in the full panel of roughly 79,000, 15% have a hit.
# reported growth inhibition; entries follow
Reply numerically in %, unit not repeated.

Consider the worked cases shown below.
>>> print(df.to_string())
                                test_smiles   measurement_name  measurement
0  CC(=O)Oc1cc(-c2cc(OC(C)=O)c(OC(C)=O)c3ccccc23)c2ccccc2c1OC(C)=O  growth inhibition           12
1              CC1=C(SCCO)C(=O)c2ccccc2C1=O  growth inhibition           -4
2            CN(C)c1nc2sc3c(c2c(=O)o1)CCCC3  growth inhibition           -4
3  CC[C@@]1(O)C(=O)OCc2c1cc1n(c2=O)Cc2cc3c(CN(C)C)c(O)ccc3nc2-1  growth inhibition           -1
4  CC(C)[N+]([O-])(CCCNc1c2ccccc2nc2cccc([N+](=O)[O-])c12)C(C)C  growth inhibition            3
5  O=[N+]([O-])c1cccc2nc3ccccc3c(NCCCN3CCOCC3)c12  growth inhibition           38

Note growth inhibition for the molecule shown: `CNC(=O)OCc1c(COC(=O)NC)c(-c2ccc(-c3ccccc3)cc2)n(C)c1C`
-16

====

TEST_DESCRIPTION: NCI Yeast Anticancer Drug Screen. Data for the cln2 rad14 strain (AID 165);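 note: 0% = growth equal to vehicle treated cultures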
CONDITION_SET: S. cerevisiae cln2 rad14 strain, at 5.0 µM (retest, dose inferred, filed as 0.5), active compounds read high
Compounds without any hit were thinned out: in the full panel of roughly 79,000, 15% have a hit.
# reported growth inhibition; entries follow
Reply numerically in %, unit not repeated.

Consider the worked cases shown below.
>>> print(df.to_string())
                                   compound  measurement
0              c1ccc2c(c1)Oc1cccc3cccc-2c13           34
1           CN(C)c1ccc(C(C#N)=C(C#N)C#N)cc1          -45
2  O=C(NC(Nc1ccc(F)c(Cl)c1)(C(F)(F)F)C(F)(F)F)C(C(F)(F)F)C(F)(F)F           43

Note growth inhibition for the compound shown: `S=c1[nH]nc(Nc2ccc(Cl)cc2)s1`
-55

Note growth inhibition for the compound shown: `[O-][n+]1c2ccc(O)cc2nc2ccc(Cl)cc21`
-4

Note growth inhibition for the compound shown: `Nc1ncncc1C(C1=C(O)COC1=O)C1=C(O)COC1=O`
-5

Note growth inhibition for the compound shown: `O=[N+]([O-])c1ccc([N+]2=NC(c3ccccc3)=NN(c3ccccc3)C2)cc1`
9

Note growth inhibition for the compound shown: CCN(CC)CC(O)c1ccc2ccc3ccccc3c2c1 (stereo unspecified)
-22

Note growth inhibition for the compound shown: `O=C(CCCN1CCC(O)(c2ccc(Cl)cc2)CC1)c1ccc(F)cc1`
43

Note growth inhibition for the compound shown: `Nc1nc(Cl)c(Cl)c(Cl)n1`
7

Note growth inhibition for the compound shown: `O=C(O)c1ccccc1-c1ccccc1C(=O)Nc1ccc2c(c1)Cc1ccccc1-2`
-27

Note growth inhibition for the compound shown: `CCOC(=O)c1cc([N+](=O)[O-])cc([N+](=O)[O-])c1Sc1ncnc2nc[nH]c12`
5

Note growth inhibition for the compound shown: `O=[N+]([O-])c1cc2no[n+]([O-])c2cc1N1CCCCC1`
0
